System: HCC-2998 colon
assay: NCI-60 one-dose screen, 48 h
details: 10 µM unless noted
This is part of a sample that, as a whole, favours compounds with a hit. Of some 83,000 tested, about 20% had one in any assay. Activity calls are given as the source filed them. The calls were made as follows: active = growth percent below 10; inactive = the rest.
The reply should be one of these categories: active, inactive

compound="Nc1n[nH]c2ccc([C@@H]3Nc4cc5c(cc4[C@H]4C6CCC(C6)[C@@H]34)C(=O)NC5)cc12 (stereo partly drawn)" class_name=inactive

# input Given CN(CCCCCl)P(=O)(OCc1ccc([N+](=O)[O-])o1)C(F)(F)c1ccc(CC(=O)NC[C@@H](O)/C=C\[C@@H](O)[C@H](CO)Cc2ccccc2)cc1 (stereo partly drawn) , state the outcome it received in this test.
# output inactive

# input Given Nc1ccc(-c2cc3c(Nc4ccc(Oc5cccc(C(F)(F)F)c5)c(Cl)c4)ncnc3s2)cc1 , state the outcome it received in this test.
# output inactive

# input Given COc1ccc(SC2c3cc(OC)c(OC)cc3Oc3nc(N)c(C#N)c(N)c32)cc1 (stereo not drawn) , state the outcome it received in this test.
# output active

# input Given Cn1c(=O)c2c(nc3n(-c4ccc(Cl)cc4Cl)c(Sc4nc(-c5ccccc5)c(C#N)c(=O)[nH]4)cn23)n(C)c1=O , state the outcome it received in this test.
# output inactive

# input Given COc1ccc(/C=C2\Oc3cc(OCCCCN4CCCC4)ccc3C2=O)cc1 , state the outcome it received in this test.
# output inactive

# input Given Cc1nn(-c2ccc(F)cc2)c2ncnc(Nc3ccc(NC(=O)Nc4ccc(Cl)c(C(F)(F)F)c4)cc3)c12 , state the outcome it received in this test.
# output inactive

# input Given O=C1/C(=C/c2ccc3c(c2)OCO3)SC(=S)N1CCc1ccc(O)cc1 , state the outcome it received in this test.
# output inactive

# input Given C=C1C(=O)O[C@H]2[C@H]1CC/C(COC(=O)c1cc3cc(OC)ccc3[nH]1)=C\CC[C@@]1(C)O[C@@H]21 , state the outcome it received in this test.
# output active

# input Given COc1cc(C(=O)Oc2ccccc2OC(=O)c2cc(OC)c(OC)c(OC)c2)cc(OC)c1OC , state the outcome it received in this test.
# output inactive

# input Given COc1cc(C=Nc2oc(-c3ccccc3)c(-c3ccccc3)c2C#N)cc(CN2CCCCC2)c1O , state the outcome it received in this test.
# output inactive

# input Given CC1(C)CC[C@]2(C(=O)Nc3ccccn3)CC[C@]3(C)C(=CC[C@@H]4[C@@]5(C)C/C(=C/c6cccnc6)C(=O)C(C)(C)[C@@H]5CC[C@]43C)[C@H]2C1 , state the outcome it received in this test.
# output inactive

* * *

System: NCI/ADR-RES ovarian
assay: NCI-60 one-dose screen, 48 h (100 = growth as untreated, 0 = no growth, -100 = all killed)
details: 10 µM unless noted
About 83,000 compounds went through this panel and 20% of them were active in at least one assay; those are over-represented in the sample as a whole.
attribute measured: growth (%)
Give just the number in %; leave the unit off.

smiles_text=Brc1ccc(-c2csc(Nc3ccccn3)n2)cc1 obs_value=74

# input If you can, please state the reported growth value of N#CCCN=Nc1c(O)[nH]c2ccc([N+](=O)[O-])cc12 .
# output 104

# input If you can, please state the reported growth value of O=C(CN(C(=O)Cn1c(=O)n2nnnc2c2ccccc21)c1ccccc1C(F)(F)F)Nc1ccc(C(F)(F)F)cc1 .
# output 106

# input If you can, please state the reported growth value of O=C(/C=C/c1cccc([N+](=O)[O-])c1)c1ccc(O)c(CN2CCN(c3cc4c(cc3F)c(=O)c(C(=O)O)cn4C3CC3)CC2)c1 .
# output 10.7

# input If you can, please state the reported growth value of CN1CCN(c2nc(NCCCNc3ccnc4cc(Cl)ccc34)c3ccccc3n2)CC1 .
# output 96.3
